Quick list: composite z-score per entry.
# measuredTarget: Focal adhesion kinase 1 (Homo sapiens) (UniProt Q05397)
# Sequence (Q05397 whole entry, looked up): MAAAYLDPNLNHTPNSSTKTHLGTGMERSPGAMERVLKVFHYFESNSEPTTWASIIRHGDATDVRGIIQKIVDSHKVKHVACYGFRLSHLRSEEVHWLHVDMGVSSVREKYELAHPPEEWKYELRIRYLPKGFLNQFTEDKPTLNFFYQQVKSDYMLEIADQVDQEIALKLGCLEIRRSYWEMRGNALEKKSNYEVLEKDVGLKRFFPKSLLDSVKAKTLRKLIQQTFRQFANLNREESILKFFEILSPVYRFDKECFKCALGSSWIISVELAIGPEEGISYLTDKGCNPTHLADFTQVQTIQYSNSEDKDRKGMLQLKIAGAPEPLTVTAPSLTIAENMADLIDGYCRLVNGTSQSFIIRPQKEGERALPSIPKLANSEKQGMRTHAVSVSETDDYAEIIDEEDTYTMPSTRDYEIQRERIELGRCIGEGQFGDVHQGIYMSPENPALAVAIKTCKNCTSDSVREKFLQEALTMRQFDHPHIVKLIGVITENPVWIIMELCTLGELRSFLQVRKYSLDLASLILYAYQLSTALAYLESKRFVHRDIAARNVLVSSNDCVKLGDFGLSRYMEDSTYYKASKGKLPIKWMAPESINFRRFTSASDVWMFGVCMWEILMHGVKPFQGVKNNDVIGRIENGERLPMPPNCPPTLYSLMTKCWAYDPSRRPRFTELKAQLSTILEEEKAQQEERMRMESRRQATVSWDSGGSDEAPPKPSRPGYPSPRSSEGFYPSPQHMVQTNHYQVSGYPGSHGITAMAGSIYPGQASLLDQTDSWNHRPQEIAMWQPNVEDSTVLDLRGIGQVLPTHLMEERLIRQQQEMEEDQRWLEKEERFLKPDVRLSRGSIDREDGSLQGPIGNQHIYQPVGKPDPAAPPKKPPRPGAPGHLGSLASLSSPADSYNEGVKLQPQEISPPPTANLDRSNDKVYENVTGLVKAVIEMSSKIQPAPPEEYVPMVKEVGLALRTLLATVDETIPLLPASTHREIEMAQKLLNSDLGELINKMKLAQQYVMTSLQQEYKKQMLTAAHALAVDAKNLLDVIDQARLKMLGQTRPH
# protocolDescription: PTK2 protein binding on printed compound slides – biochemical, small-molecule microarray, 635/667 nm fluorescence, BSA, DTT, primary screen (AID 1130);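 note: composite of spot emission at 667 nm and signal to noise over triplicate slides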
# appliedConditions: 635 nm fluorescence, higher = more signal

molecule: O=C1NC(=O)C2C1C=CC(C(O)c1ccc(I)cc1)N2Nc1ccc(Cl)cc1Cl (centres undefined)
composite z-score: 0.741

molecule: CO[C@H]1O[C@H](CO)[C@@H](OC(=O)Nc2ccc(Oc3ccccc3)cc2)[C@H](OC(=O)Nc2ccc3c(c2)OCO3)[C@@H]1OC(=O)Nc1ccc2c(c1)OCO2
composite z-score: 0.653

molecule: CC(C)C(=C=CC[C@H](O)c1ccc(CO)o1)CCO
composite z-score: 0.217

molecule: COC(=O)c1c2oc(c1C(=O)OC)C(=O)N[C@@H](C(C)C)Cn1cc(nn1)C1(CCCCC1)NC(=O)N[C@H](CO)CC2
composite z-score: -0.0947

* * *

# protocolDescription: changes in parasitized red cell lysis, either direction – P. falciparum Indochina, OD700, 3 h, PSAC antagonist project, primary screen (AID 1156)
# appliedConditions: P. falciparum-infected erythrocytes, osmotic lysis, higher = more signal, called active from +8 up or from −8 down
z-score below 1 gives Not satisfied; z-score at or above it gives Satisfied.

compoundStructure: CCCCCCc1nc(-c2ccc(-c3ccc(Cl)c(Cl)c3)o2)c(C)c2c1[Si](C(C)C)(C(C)C)OC2
category: Not satisfied
--
compoundStructure: CCOC(=O)C1=CC[C@@H](c2ccc(C(F)(F)F)cc2)N(S(=O)(=O)c2ccc(C)cc2)[C@H]1c1ccccc1
category: Not satisfied
--
compoundStructure: COc1cc2c(cc1O)C=[N+](Cc1cc3c(cc1Br)OCO3)CC2
category: Satisfied
--
compoundStructure: C=C(/C(=C/C[C@H](OC(=O)c1ccncc1)c1ccc(OCCO)cc1)c1cc(C(=O)OC)ccc1OC)C(C)C
category: Satisfied
--
compoundStructure: COCCCNC(=O)[C@@]1(Sc2ccc(C)cc2)CC(=O)N(Cc2ccccc2Cl)[C@@H]1c1ccc(CO)cc1
category: Not satisfied
--
compoundStructure: COC(=O)c1c(CC[C@@H](CO)NC(=O)N[C@@H](Cc2ccccc2)Cn2cc(-c3ccccn3)nn2)oc(C(=O)N2CCOCC2)c1C(=O)OC
category: Not satisfied
--
compoundStructure: O=C(O)[C@H]1C[C@H]2C(=O)N3CCC[C@H]3C(=O)N2[C@H]1c1ccc(O)cc1
category: Not satisfied

* * *

Quick list: z-score per entry.
# measuredTarget: NADPH oxidase 2 (Homo sapiens) (UniProt P04839)
# Sequence (P04839 whole entry, looked up): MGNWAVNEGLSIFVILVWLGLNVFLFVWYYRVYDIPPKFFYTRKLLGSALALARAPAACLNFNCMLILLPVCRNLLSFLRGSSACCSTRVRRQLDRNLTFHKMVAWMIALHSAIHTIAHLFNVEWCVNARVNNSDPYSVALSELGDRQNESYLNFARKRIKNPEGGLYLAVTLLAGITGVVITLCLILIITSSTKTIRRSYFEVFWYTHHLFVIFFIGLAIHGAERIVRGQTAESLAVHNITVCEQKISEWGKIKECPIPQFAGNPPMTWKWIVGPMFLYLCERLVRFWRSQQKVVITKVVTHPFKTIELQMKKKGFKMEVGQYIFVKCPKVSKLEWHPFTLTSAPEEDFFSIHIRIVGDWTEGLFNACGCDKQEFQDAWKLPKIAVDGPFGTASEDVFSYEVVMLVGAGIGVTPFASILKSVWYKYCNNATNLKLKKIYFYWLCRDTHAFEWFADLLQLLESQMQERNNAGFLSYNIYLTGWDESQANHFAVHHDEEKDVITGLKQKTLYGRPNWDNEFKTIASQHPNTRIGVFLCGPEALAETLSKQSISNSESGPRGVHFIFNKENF
# protocolDescription: compounds shifting NOX2 Amplex Red fluorescence – cell-based, HEK293-NOX2, PMA-stimulated, NOX inhibitor project, primary screen (AID 1159); note: test concentration not given here
# appliedConditions: 45 min, higher = more signal, called active from +8 up or from −8 down

compound: CCCNC(=O)[C@@H]1c2ccccc2C(=O)N(Cc2ccccc2OC)[C@H]1c1ccc(CO)cc1
z-score: 0.802
--
compound: COc1ccc([Si](C)(C)[C@@H]2[C@@H](CC(=O)N3Cc4ccccc4C[C@H]3CO)O[C@]3(C(=O)N(Cc4cccc(N5CCC5=O)c4)c4ccccc43)[C@H]2C)cc1
z-score: -0.355
--
compound: O=C1C2C=CC(C(O)c3ccc4c(c3)OCO4)N(Nc3ccc([N+](=O)[O-])cc3)C2C(=O)N1c1ccccc1 (configuration not stated)
z-score: -1
--
compound: COC(=O)c1c(CC[C@@H](CO)NC(=O)N[C@@H](Cc2ccccc2)Cn2cc(-c3ccccn3)nn2)oc(C(=O)N2CCOCC2)c1C(=O)OC
z-score: -1.76
--
compound: COC(=O)c1c(CC[C@@H](CO)NC(=O)N[C@H](Cc2ccccc2)Cn2cc(-c3ccccn3)nn2)oc(C(C)=O)c1C(=O)OC
z-score: -1.52
--
compound: C#CCN1[C@@H](Cc2ccc(O)cc2)C(=O)O[C@H](Cc2ccccc2)[C@@H]1/C=C/C1CC1
z-score: -0.759
--
compound: O=C1OCCC/C=C\[C@H]2OC34C=CCN(c5ccc6ccccc6c5)C(=O)[C@H]3N(CCCCCO)C(=O)[C@@H]4C12 (some centres not stated)
z-score: 0.814
